test-target: Recombinant human Cbl-b (aa 36-427) (Homo sapiens (Human), UniProt Q13191)
Sequence (Q13191 36-427): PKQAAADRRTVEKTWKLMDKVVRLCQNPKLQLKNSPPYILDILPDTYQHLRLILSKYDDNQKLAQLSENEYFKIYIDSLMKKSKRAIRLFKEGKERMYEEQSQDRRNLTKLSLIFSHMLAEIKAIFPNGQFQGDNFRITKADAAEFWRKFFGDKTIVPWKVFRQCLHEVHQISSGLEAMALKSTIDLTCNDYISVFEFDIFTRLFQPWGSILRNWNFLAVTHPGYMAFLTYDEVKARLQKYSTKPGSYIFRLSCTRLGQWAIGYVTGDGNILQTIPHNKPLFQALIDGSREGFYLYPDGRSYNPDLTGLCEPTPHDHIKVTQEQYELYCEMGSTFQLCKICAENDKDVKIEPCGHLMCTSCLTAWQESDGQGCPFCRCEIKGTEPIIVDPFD
assay-info: Cbl-b Biochemical Assay (TR-FRET)
condition-summary: read-out: TR-FRET hCbl-b IC50
pIC50: −log10 of the molar value.
Provide the recorded pIC50 for the entries that follow.

Tested on Recombinant human Cbl-b (aa 36-427) (Homo sapiens (Human), UniProt Q13191), the item CCNc1cc(-c2c(-c3nncn3C)cnn2C)cc(N2Cc3c(cc(CO[C@@H]4CCC[C@@H]4O)cc3C(F)(F)F)C2=O)n1 (racemic) [ADB-1] showed pIC50 equal to ≥ 6.70

Known value: Recombinant human Cbl-b (aa 36-427) (Homo sapiens (Human), UniProt Q13191) pIC50 of the compound CN(Cc1cc(F)c2c(c1)C(=O)N(c1cc(-c3ccc(F)cc3-c3nncn3C)cc(C3CC3)n1)C2)CC1(O)CCC1 equals ≥ 6.70

# Cn1cnnc1-c1cc(C#N)ccc1-c1cc(C2CC2)nc(N2Cc3ccc(CN4C[C@@H]5C[C@H]4CO5)cc3C2=O)c1 with Recombinant human Cbl-b (aa 36-427) (Homo sapiens (Human), UniProt Q13191): pIC50 is ≥ 6.70

The value of pIC50 recorded for Cn1cnnc1-c1cc(C#N)ccc1-c1cc(C2CC2)nc(N2Cc3c(F)cc(CN4CC[C@@H]5OCC[C@@H]54)cc3C2=O)c1 (single isomer, unassigned) when tested on Recombinant human Cbl-b (aa 36-427) (Homo sapiens (Human), UniProt Q13191) reads ≥ 6.70

Result for CNCc1ccc2c(c1)C(=O)N(c1cc(-c3ccc(C#N)cc3-c3nncn3C)cc(C3CC3)n1)C2 , tested on Recombinant human Cbl-b (aa 36-427) (Homo sapiens (Human), UniProt Q13191), pIC50: ≥ 6.70

Field pIC50 (Recombinant human Cbl-b (aa 36-427) (Homo sapiens (Human), UniProt Q13191)), entry CCCn1cc(-c2nncn2C)c(-c2cc(NCC)nc(N3Cc4c(cccc4C(F)(F)F)C3=O)c2)n1 : 4.30 to 5.00

I looked up Cn1cnnc1-c1ccccc1-c1cccc(N2Cc3c(cc(CO)cc3C(F)(F)F)C2=O)c1 and its pIC50 for Recombinant human Cbl-b (aa 36-427) (Homo sapiens (Human), UniProt Q13191) was 6.00 to 6.70

For CCNc1cc(-c2ccc(C#N)cc2-c2nncn2C)cc(N2Cc3c(cc(N4CCCC4)cc3C(F)(F)F)C2=O)n1 on Recombinant human Cbl-b (aa 36-427) (Homo sapiens (Human), UniProt Q13191), measured pIC50 was 6.00 to 6.70

So the reported pIC50 for Cn1cnnc1-c1ccccc1-c1cc(Cl)nc(N2Cc3c(cccc3C(F)(F)F)C2=O)c1 , on Recombinant human Cbl-b (aa 36-427) (Homo sapiens (Human), UniProt Q13191), turned out to be 6.00 to 6.70

Entry COC(C)(C)CNCc1ccc2c(c1)C(=O)N(c1cc(-c3ccc(C#N)cc3-c3nncn3C)cc(C3CC3)n1)C2 : pIC50 on Recombinant human Cbl-b (aa 36-427) (Homo sapiens (Human), UniProt Q13191) = ≥ 6.70

Let me check: CCOc1cc(-c2ccccc2-c2nncn2C)cc(N2Cc3c(cccc3C(F)(F)F)C2=O)c1 , system Recombinant human Cbl-b (aa 36-427) (Homo sapiens (Human), UniProt Q13191), measured pIC50 is 6.00 to 6.70

Measured pIC50 (Recombinant human Cbl-b (aa 36-427) (Homo sapiens (Human), UniProt Q13191)), entry C[C@@H](NCC1CC1)c1ccc2c(c1)C(=O)N(c1cc(-c3ccc(C#N)cc3-c3nncn3C)cc(C3CC3)n1)C2 : ≥ 6.70

pIC50 on Recombinant human Cbl-b (aa 36-427) (Homo sapiens (Human), UniProt Q13191) for Cn1cnnc1-c1cc(C(N)=O)ccc1-c1cccc(N2Cc3c(cc(CO)cc3C(F)(F)F)C2=O)c1 is 5.00 to 6.00

Form field pIC50 for item CCNc1cc(-c2c(-c3nncn3C)cnn2C)cc(N2Cc3c(cc(COCC4(N)CCC4)cc3C(F)(F)F)C2=O)n1 on Recombinant human Cbl-b (aa 36-427) (Homo sapiens (Human), UniProt Q13191): ≥ 6.70

###

test-target: Recombinant human Cbl-b (aa 36-427) (Homo sapiens (Human), UniProt Q13191)
assay-info: Cbl-b Biochemical Assay (TR-FRET)
condition-summary: read-out: TR-FRET hCbl-b IC50
Assign IC50 to each entry below.

For this molecule ( Cn1cnnc1-c1cnn(C)c1-c1cc(C2CC2)nc(N2Cc3c(cc(CO)cc3C(F)(F)F)C2=O)c1 [AKI-1] ), measured IC50 is ≤ 200 nM

Record Cn1cnnc1-c1cc(C#N)ccc1-c1cc(C2CC2)nc(N2Cc3c(F)cc(CN4C[C@@H]5C[C@H]4CO5)cc3C2=O)c1 [AKR-3] , field IC50: ≤ 200 nM

Form: molecule = Cn1cnnc1-c1cnn(C)c1-c1cc(O)nc(N2Cc3c(cc(CN4CCC5(CC5)C4)cc3C(F)(F)F)C2=O)c1 [ABE-1] ; IC50 = 1000 to 10000 nM

Value of measured IC50 for the entry Cn1cnnc1-c1cc(C#N)ccc1-c1cccc(N2Cc3c(cc(CN[C@@H]4CCC[C@@H]4O)cc3C(F)(F)F)C2=O)c1 [BE-3] : ≤ 200 nM

Documented IC50 of Cn1ncnc1-c1ccccc1-c1cccc(N2Cc3c(cccc3C(F)(F)F)C2=O)c1 [AAX-2] : 10000 to 50000 nM

Form field IC50, entry Cn1cnnc1-c1cc(C#N)ccc1-c1cc(C2CC2)nc(N2Cc3ccc(CN4CC5CC5C4)cc3C2=O)c1 (stereo not shown) [ANA-1] : ≤ 200 nM

The molecule identified as COC[C@@H](C)NCc1cc(F)c2c(c1)C(=O)N(c1cc(-c3ccc(C#N)cc3-c3nncn3C)cc(C3CC3)c1)C2 [ALG-3] registered its IC50 at ≤ 200 nM

###

test-target: Recombinant human Cbl-b (aa 36-427) (Homo sapiens (Human), UniProt Q13191)
assay-info: Cbl-b Biochemical Assay (TR-FRET)
condition-summary: read-out: TR-FRET hCbl-b IC50
pIC50: −log10 of the molar value.
Can you tell me pIC50 for the items I'm about to list?

GET /value?item= Cn1cnnc1-c1cc(C#N)ccc1-c1cc(C2CC2)nc(N2Cc3ccc(CNC4CCOCC4)cc3C2=O)c1 [AMO-2] &field=pIC50 returns ≥ 6.70

Value of pIC50 reported for the molecule Cn1cnnc1-c1ccccc1-c1cccc(NC(=O)c2cc(=O)[nH]c(C3CC3)n2)c1 [AAP-1] is 5.00 to 6.00

Given item Cn1cnnc1-c1cc(F)ccc1-c1cc(C2CC2)nc(N2Cc3c(cc(COCC4(O)CCC4)cc3C(F)(F)F)C2=O)c1 [AFL-2] , the value recorded as its pIC50 is ≥ 6.70

# pIC50 of Cn1cnnc1-c1cnn(C)c1-c1cc(C2CC2)nc(N2Cc3ccc(CNCC4(O)CCC4)cc3C2=O)c1 [AFI-1] = ≥ 6.70

Consider Cn1cnnc1-c1cnn(C)c1-c1cc(C2CC2)nc(N2Cc3c(cc(CNCC4(O)CCC4)cc3C(F)(F)F)C2=O)c1 [ADR-3] . Its measured pIC50 is ≥ 6.70

The molecule listed as COCCN(C)Cc1cc(F)c2c(c1)C(=O)N(c1cc(-c3ccc(C#N)cc3-c3nncn3C)cc(C3CC3)n1)C2 [ANT-1] shows pIC50 equal to ≥ 6.70

The molecule listed as Cn1cnnc1-c1cc(C#N)ccc1-c1cc(C2CC2)nc(N2Cc3ccc(CN4CC5(COC5)C4)cc3C2=O)c1 [AOL-1] shows pIC50 equal to ≥ 6.70

Measured pIC50, Cn1cnnc1-c1ccccc1-c1cccc(N2Cc3c(cc(CO[C@@H]4CCC[C@H]4O)cc3C(F)(F)F)C2=O)c1 [ADL-4] : ≥ 6.70

Entry CN1CCC[C@@H]1COCc1cc2c(c(C(F)(F)F)c1)CN(c1cc(-c3ccc(F)cc3-c3nncn3C)cc(C3CC3)n1)C2=O [AHO-4] , pIC50 reported as ≥ 6.70

Form: molecule = Cn1cnnc1-c1cc(C#N)ccc1-c1cc(C2CC2)nc(N2Cc3c(cc(CNCC4COC4)c(F)c3F)C2=O)c1 [ANE-1] ; pIC50 = ≥ 6.70

For this molecule ( Cn1cnnc1-c1ccccc1-c1cccc(N2Cc3c(cc(CNCC4(O)CCC4)cc3C(F)(F)F)C2=O)c1 [AW-2] ), measured pIC50 is ≥ 6.70

CCNc1cc(-c2ccc(C#N)cc2-c2nncn2C)cc(N2Cc3c(cc(COCC4(N)CCC4)cc3C(F)(F)F)C2=O)n1 [AGJ-2] yielded pIC50 of ≥ 6.70

// sample CCNc1cc(-c2ccc(C#N)cc2-c2nncn2C)cc(N2Cc3c(cc([C@H](O)CN(C)C)cc3C(F)(F)F)C2=O)n1 (single isomer, unassigned) [AGL-1] , its pIC50 was ≥ 6.70

What the record says about CCNc1cc(-c2ccccc2-c2nncn2C)cc(N2Cc3c(cc(CN4CCC5(CC4)CC5)cc3C(F)(F)F)C2=O)n1 [AI-2] : pIC50 is ≥ 6.70

The measured values listed here are drawn from patent US12325697B2.
